Would you kindly list normalized growth for each of these molecules?
ASSAY_METHOD_TEXT: chemical genetic growth profiling, strain panel (AID 1159580);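 also: tested at 20 µM; growth read once vehicle control cultures reached saturation at 30 °C; 1 = growth at the plate median or of vehicle wells; lower values mean less growth of the strain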
ASSAY_SETUP: S. cerevisiae deletion strains, growth OD, locus YJR066W, strain TOR1, hits give low values
Out of some 5,500 compounds screened, about 2,000 (36%) were called active. Not shown: some 18% with an inconclusive outcome. Some of the results follow. *1 amine or outer side, *2 acyl side, *3 side chain or, on linkers, in order; H or OH if unused. Where a SMILES comes first, the peptide text is derived from it. Bridges are numbered along the chain shown (N, C = ends). [ ]: non-standard residue; d: D form. The star is where a group is joined. ξ: configuration not given here. ΔAla(E,3-NHCONH2) = NC(=O)N/C=C(/N)C(=O)O; X2 = NC1=NCCC(C(N[*:1])C(=O)[*:2])N1; ξβ3hOrn = NCCCC(N)CC(=O)*; Dap = NC[CH](N)C(=O)O
Give bare numbers.

Record CCCCCN(CCCCC)C(=O)C(CCC(=O)O)NC(=O)c1ccc(Cl)c(Cl)c1 (centres undefined) . Reported normalized growth: 0.97

Record COc1c2occc2c(OC)c2c(=O)cc(C)oc12 . Reported normalized growth: 0.931

Record CC(=O)NO . Reported normalized growth: 0.993

Record NCCCC(N)CC(=O)NCC1NC(=O)C(CO)NC(=O)C(N)CNC(=O)C(C2CCN=C(N)N2)NC(=O)/C(=C\NC(N)=O)NC1=O (stereo not drawn) (H-[Dap]S[Dap](ξβ3hOrn)[ΔAla(E,3-NHCONH2)][X2]; lactam 1-C; configuration not given here) . Reported normalized growth: 0.98

Provide reported normalized growth for each item, in the same order as listed.
1. O1[As]2O[As]3O[As]1O[As](O2)O3
2. COc1cc(O)cc(OC)c1OC
3. COc1cc(OC)cc(N2C(=O)C=CC2=O)c1
4. COc1c2ccoc2cc2oc(C)cc(=O)c12
5. CCC1C(=O)OCC1Cc1cncn1C (centres undefined)

### Response
1: 0.961; 2: 0.905; 3: 0.113; 4: 0.993; 5: 0.971

---

ASSAY_METHOD_TEXT: chemical genetic growth profiling, strain panel (AID 1159580)
ASSAY_SETUP: S. cerevisiae deletion strains, growth OD, locus YBR231C, strain swc5
The campaign covered roughly 5,500 compounds. About 2,000 (36%) were called active. About 18% were inconclusive and are not listed. Rule as the data show it: active = normalized growth mostly below about 0.91 (no sharp cut-off); inconclusive = no clear call, values can overlap the other calls; inactive = mostly above about 0.92. The list shows a part of the results.
Parameter call: string, one of class 1 = active, class 0 = inactive

Some solved cases for reference:
### Prompt Tell me the recorded outcome of this test for CCC1(CC)C(=O)C=CNC1=O .
### Response class 0

### Prompt Tell me the recorded outcome of this test for CN1CCN(CCC=C2c3ccccc3Sc3ccc(S(=O)(=O)N(C)C)cc32)CC1 .
### Response class 0

More entries:
### Prompt Tell me the recorded outcome of this test for C[C@]12CCC3C(CC[C@H]4C[C@H](OS(=O)(=O)O)CC[C@]34C)C1CCC2=O (some centres undefined) .
### Response class 0

### Prompt Tell me the recorded outcome of this test for COC(=O)[C@]1(C)CC[C@]2(C)CC[C@]3(C)C4=CC=C5C(=CC(=O)C(O)=C5C)[C@]4(C)CC[C@@]3(C)[C@@H]2C1 .
### Response class 1

---

Would you kindly list normalized growth for each of these compounds?
ASSAY_METHOD_TEXT: chemical genetic growth profiling, strain panel (AID 1159580)
ASSAY_SETUP: S. cerevisiae deletion strains, growth OD, locus YMR125W, strain sto1, hits give low values
Among all 5,500 compounds or so, about 2,000 (36%) were called active. Not shown: some 18% with an inconclusive outcome. This is one part of the list.
Answers are plain numbers.

Record CC(=O)[C@@]1(O)CCC2C3CCC4=CC(=O)CC[C@]4(C)C3CC[C@@]21C (stereo partly drawn) . Reported normalized growth: 0.984

Provide reported normalized growth for each item, in the same order as listed.
1. Cc1onc(-c2c(Cl)cccc2Cl)c1C(=O)N[C@@H]1C(=O)N2[C@@H]1SC(C)(C)[C@@H]2C(=O)O
2. COC(=O)C[C@H]1C(C)(C)[C@@H](O)[C@@H]2CC3=C4C=C(OC)O[C@@H](c5ccoc5)[C@]4(C)CCC3[C@@]1(C)C2=O (stereo partly drawn)

### Response
1. 0.951
2. 0.993

---

ASSAY_METHOD_TEXT: chemical genetic growth profiling, strain panel (AID 1159580);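 also: tested at 20 µM; growth read once vehicle control cultures reached saturation at 30 °C; 1 = growth at the plate median or of vehicle wells; lower values mean less growth of the strain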
ASSAY_SETUP: S. cerevisiae deletion strains, growth OD, locus YLR058C, strain SHM2 (second series)
About 2,000 (36%) of roughly 5,500 compounds were called active. Inconclusive results (about 18%) are left out. Cut-off read from the data, not from the text of the source: active = normalized growth mostly below about 0.91 (no sharp cut-off); inconclusive = no clear call, values can overlap the other calls; inactive = mostly above about 0.92. Some of the results follow.
Parameter call: string, one of active, inactive

Some solved cases for reference:
### Prompt Tell me the recorded outcome of this test for COc1cc(/C=C2/SC(=S)NC2=O)cc(OC)c1OC .
### Response active

### Prompt Tell me the recorded outcome of this test for CC(C)(C)c1ccc(-c2cc(N)c(C(N)=O)s2)cc1 .
### Response inactive

### Prompt Tell me the recorded outcome of this test for O=C1C=C(Cl)CC(c2ccc(C(F)(F)F)cc2)C1 (stereo not given) .
### Response inactive

### Prompt Tell me the recorded outcome of this test for COc1cc2nc(-c3cccs3)oc(=O)c2cc1OC .
### Response inactive

### Prompt Tell me the recorded outcome of this test for Cc1[nH]n(C)c(=O)c1N=Nc1ccc(Cl)cc1 .
### Response active

More entries:
### Prompt Tell me the recorded outcome of this test for COC(=O)c1cc([N+](=O)[O-])ccc1N1CCOCC1 .
### Response inactive

### Prompt Tell me the recorded outcome of this test for COc1cc(/C=N\NC(=S)NC2CC3CCC2C3)cc(OC)c1OC (stereo not given) .
### Response inactive

### Prompt Tell me the recorded outcome of this test for N#Cc1nccnc1Sc1ccc(Cl)cc1 .
### Response active

### Prompt Tell me the recorded outcome of this test for O=C1CCCN1c1ccc(Cl)c(Cl)c1 .
### Response inactive

### Prompt Tell me the recorded outcome of this test for COC(=O)c1ccccc1CSc1nccc(C(F)(F)F)n1 .
### Response inactive

---

ASSAY_METHOD_TEXT: chemical genetic growth profiling, strain panel (AID 1159580);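 also: tested at 20 µM; growth read once vehicle control cultures reached saturation at 30 °C; 1 = growth at the plate median or of vehicle wells; lower values mean less growth of the strain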
ASSAY_SETUP: S. cerevisiae deletion strains, growth OD, locus YIL066C, strain RNR3, hits give low values
The campaign covered roughly 5,500 compounds. About 2,000 (36%) were called active. About 18% were inconclusive and are not listed. Some of the results follow. Where a SMILES comes first, the peptide text is derived from it. [ ]: non-standard residue; d: D form. Orn = NCCC[CH](N)C(=O)O
READOUT_LABEL: normalized growth
Numbers only.

Record O=C(CCBr)N1CCN(C(=O)CCBr)CC1 . Reported normalized growth: 1.02

Record O=C(O)c1cc(=O)c2c(Cl)cc(Cl)cc2[nH]1 . Reported normalized growth: 1.01

Record CC[C@H]1CN2CCc3cc(OC)c(OC)cc3C2C[C@@H]1CC1NCCc2cc(OC)c(OC)cc21 (stereo not given in full) . Reported normalized growth: 0.993

Record CC(=O)Oc1cccc(C(=O)O)c1OC(C)=O . Reported normalized growth: 1.01

Record COc1ccc2c(c1OC)OC[C@@H](c1ccc(OC)c(OC)c1OC)C2 . Reported normalized growth: 1.01

Provide reported normalized growth for each item, in the same order as listed.
1. COc1ccc2c(c1)[C@]13CCCC[C@H]1[C@H](C2)N(C)CC3
2. CC(C)CC1NC(=O)C(CCCN)NC(=O)C(C(C)C)NC(=O)C2CCCN2C(=O)C(Cc2ccccc2)NC(=O)C(CC(C)C)NC(=O)C(CCCN)NC(=O)C(C(C)C)NC(=O)C2CCCN2C(=O)C(Cc2ccccc2)NC1=O (stereo not given) (cyclo(FPV[Orn]LFPV[Orn]L); configuration not given here)

### Response
[1.01, 0.999]

---

ASSAY_METHOD_TEXT: chemical genetic growth profiling, strain panel (AID 1159580);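 also: tested at 20 µM; growth read once vehicle control cultures reached saturation at 30 °C; 1 = growth at the plate median or of vehicle wells; lower values mean less growth of the strain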
ASSAY_SETUP: S. cerevisiae deletion strains, growth OD, locus YOR083W, strain WHI5 (second series), hits give low values
The whole screen tested about 5,500 compounds, of which about 2,000 (36%) were called active. Roughly 18% stayed inconclusive and do not appear here. The list shows a part of the results.
Would you kindly list normalized growth for each of these molecules?

Record N[C@@H](CCl)C(=O)O . Reported normalized growth: 1.01 (inactive)

Record CC(=O)NCCc1c[nH]c2ccccc12 . Reported normalized growth: 1.02 (inactive)

Record Nc1ncnc2c1ncn2[C@@H]1O[C@H](C(=O)NC2CC2)[C@H](O)C1O (stereo not given in full) . Reported normalized growth: 1.01 (inactive)

Record Cc1ccc(N(CC2=NCCN2)c2cccc(O)c2)cc1 . Reported normalized growth: 1.03 (inactive)

Now consider the entry below.
Record Cc1cc(C(C)(C)C)cc(C)c1CC1=NCCN1 . Reported normalized growth: 0.992 (inactive)
